Recorded measurements of pIC50, one per entry
target: c-Met (cytoplasmic domain) (Homo sapiens, UniProt P08581); construct: 10 ng/mL c-Met (cytoplasmic domain, Invitrogen Corporation #PV3143); purchased Invitrogen Corporation PV3143; experiment: c-Met Kinase Assay (same methods as for ALK, with modifications); assay type: biochemical; settings: 1 μM ATP (Km level), 10 ng/mL c-Met; read-out: cMet Activity (c-Met kinase inhibition, IC50 class)
Sequence (P08581 956-1390 limits assumed): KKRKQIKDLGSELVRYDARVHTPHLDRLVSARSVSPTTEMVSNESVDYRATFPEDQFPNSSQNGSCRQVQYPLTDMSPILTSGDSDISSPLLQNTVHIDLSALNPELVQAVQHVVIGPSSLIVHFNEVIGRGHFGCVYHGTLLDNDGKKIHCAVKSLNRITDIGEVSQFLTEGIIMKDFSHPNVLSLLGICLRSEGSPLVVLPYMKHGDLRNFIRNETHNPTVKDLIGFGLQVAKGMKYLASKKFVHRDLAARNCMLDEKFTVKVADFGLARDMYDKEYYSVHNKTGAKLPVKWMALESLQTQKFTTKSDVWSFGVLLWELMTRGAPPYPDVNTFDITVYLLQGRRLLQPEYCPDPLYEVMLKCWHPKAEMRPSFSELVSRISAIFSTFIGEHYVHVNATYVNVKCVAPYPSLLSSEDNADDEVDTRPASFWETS
pIC50: −log10 of the molar value.
REPORTED METRIC: pIC50

1. CNC(=O)c1ccc([N+](=O)[O-])cc1Nc1nc(Nc2ccc3c(c2)C(C)(C)CCC(=O)N3)ncc1Cl [Example 1235] | 6.00 to 7.00
2. COc1cc2c(cc1Nc1ncc(Cl)c(Nc3ccccc3S(=O)(=O)N(C)C)n1)CCN(CC(=O)N1CCC1)CC2 [Example 1201] | < 5.00
3. COCCN1CCc2cc(Nc3ncc(Cl)c(Nc4ccc(C(N)=O)cc4OC)n3)c(OC)cc2CC1 [Example 1156] | < 5.00
4. COc1cc2c(cc1Nc1ncc(Cl)c(N[C@@H]3CCCC[C@H]3NS(C)(=O)=O)n1)CCC(NCC(F)F)CC2 (single isomer, unassigned) [Example 1057] | < 5.00
5. COc1ccc(Nc2nc(Nc3cc4c(cc3OC)CCN(CC(=O)N(C)C)CC4)ncc2Cl)c(OC)n1 [Example 1200] | 5.00 to 6.00
6. CNC(=O)c1ccccc1Nc1nc(Nc2cc3c(cc2OC)CC(=O)N(CCCN2CCOCC2)CC3)ncc1Cl [Example 1126] | < 5.00
7. COc1cc2c(cc1Nc1ncc(Cl)c(Nc3ccccc3S(=O)(=O)C(C)C)n1)CCC(N1CCOCC1)CC2 (stereo not drawn) [Example 1050] | < 5.00
8. CNC(=O)c1cc(-c2cnn(C)c2)cc(F)c1Nc1nc(Nc2ccc3c(c2)OCCCN3C(=O)OC)ncc1Cl [Example 1434] | > 7.00
9. Cc1cccnc1-c1ccccc1Nc1nc(Nc2ccc3c(c2)CCC(O)CC3)ncc1Cl (stereo not drawn) [Example 1021] | 5.00 to 6.00
10. CCOC(=O)c1ccccc1Nc1nc(Nc2ccc3c(c2)CCN(CCOC)CC3)ncc1Cl [Example 1395] | 6.00 to 7.00
11. COCCN1CCc2ccc(Nc3ncc(Cl)c(Nc4ccccc4C(=O)NCCCCN(C)C)n3)cc2CC1 [Example 1400] | 5.00 to 6.00
12. CCNC(=O)c1cccc(F)c1Nc1nc(Nc2cc3c(cc2OC)CCN(CC(=O)NC)CC3)ncc1Cl [Example 1364] | 5.00 to 6.00
